These entries and their values trace back to patent US8158661B2.

Target: Recombinant human glycogen synthase kinase 3β (Homo sapiens, UniProt P49841)
Sequence (P49841 whole entry): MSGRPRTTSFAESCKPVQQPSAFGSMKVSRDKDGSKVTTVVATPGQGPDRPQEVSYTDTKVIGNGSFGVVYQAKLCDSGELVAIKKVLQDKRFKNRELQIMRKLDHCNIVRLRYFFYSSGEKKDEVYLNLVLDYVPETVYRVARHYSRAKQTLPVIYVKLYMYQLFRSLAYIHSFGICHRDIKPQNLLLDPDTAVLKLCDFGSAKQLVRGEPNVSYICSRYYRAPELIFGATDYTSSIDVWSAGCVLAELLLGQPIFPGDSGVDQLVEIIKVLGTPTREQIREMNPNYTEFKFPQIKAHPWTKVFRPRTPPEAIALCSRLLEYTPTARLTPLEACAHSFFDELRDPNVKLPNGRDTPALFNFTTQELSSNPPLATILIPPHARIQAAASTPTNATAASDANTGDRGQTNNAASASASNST
Assay: GSK-3β inhibition
Conditions: recombinant human GSK-3β, GS-2 62.5 μM, ATP 12.5 μM, 30 min at 30° C.
pIC50: −log10 of the molar value.
ATTRIBUTE MEASURED: pIC50

>>> recorded_result("Cc1cccc(C(C)(C)C)c1-n1sc(=O)n(Cc2ccccc2)c1=O [Compound 8]")
5.52

[A] O=c1sn(-c2ccc3c(c2)OCO3)c(=O)n1Cc1ccccc1 [Compound 5]
[B] O=c1sn(C(c2ccccc2)c2ccccc2)c(=O)n1Cc1ccccc1 [Compound 6]
Challenge: Which of the two items, A and B , has the greater recorded pIC50? Write down the label attached to your selection.
Response given: B

----------
Test: Brain permeation and pharmacokinetics after oral and intravenous administration
Type: in vivo, C57/BL6 mice
Conditions: both sexes, C57/BL6, mouse; mice, single oral dose 200 mg/kg, plasma
ATTRIBUTE MEASURED: Cmax (ng/mL)
State the answer as a number, implicitly in ng/mL.

Challenge: Give the value of Cmax reported for the following: "O=c1sn(-c2cccc3ccccc23)c(=O)n1Cc1ccccc1"
Response given: 9060

----------
Target: Bovine serum albumin (Fraction V) (Bos taurus)
Construct: Bovine serum albumin (Fraction V) (Sigma); purchased Sigma
Sequence (P02769 25-607): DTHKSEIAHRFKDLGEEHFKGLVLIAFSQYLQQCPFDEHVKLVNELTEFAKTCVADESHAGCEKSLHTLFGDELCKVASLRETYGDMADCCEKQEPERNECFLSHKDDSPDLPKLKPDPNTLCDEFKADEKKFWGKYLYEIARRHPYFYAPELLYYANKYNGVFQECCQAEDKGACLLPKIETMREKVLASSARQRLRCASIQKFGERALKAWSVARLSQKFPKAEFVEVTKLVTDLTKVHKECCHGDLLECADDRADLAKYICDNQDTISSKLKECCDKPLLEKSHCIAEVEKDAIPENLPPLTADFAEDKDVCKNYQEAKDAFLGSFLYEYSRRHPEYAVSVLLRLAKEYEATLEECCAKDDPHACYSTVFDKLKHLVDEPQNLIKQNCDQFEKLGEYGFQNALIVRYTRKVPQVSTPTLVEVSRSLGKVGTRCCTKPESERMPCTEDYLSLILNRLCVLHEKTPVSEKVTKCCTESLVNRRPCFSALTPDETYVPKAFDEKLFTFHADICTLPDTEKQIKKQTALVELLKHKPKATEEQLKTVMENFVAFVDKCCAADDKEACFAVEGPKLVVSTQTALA
Assay: Binding to BSA (incubation, HPLC-UV/MS)
Type: in vitro ADME
Details: compound and BSA 1 mM each, 30 minutes at room temperature
ATTRIBUTE MEASURED: % unbinding compound, albumin (%)

Example entries begin here.
>>> recorded_result("O=c1sn(CCc2ccccc2)c(=O)n1Cc1ccccc1")
80.2
>>> recorded_result("O=c1sn(C23CC4CC(CC(C4)C2)C3)c(=O)n1Cc1ccccc1")
54.0
>>> recorded_result("O=c1sn(-c2cccc3ccccc23)c(=O)n1Cc1ccccc1")
98.0
>>> recorded_result("O=c1sn(Cc2ccccc2)c(=O)n1Cc1ccccc1 [reference compound]")
57.0
>>> recorded_result("O=c1sn(-c2ccc3c(c2)OCO3)c(=O)n1Cc1ccccc1")
65.5

[1] Cc1cccc(C(C)(C)C)c1-n1sc(=O)n(Cc2ccccc2)c1=O
[2] O=c1sn(-c2ccccc2Cc2ccccc2)c(=O)n1Cc1ccccc1
Challenge: Select the item whose % unbinding compound, albumin value is smaller, choosing between 1 and 2 . Write down the label attached to your selection.
Response given: 1

[I] Cc1ccc(Cn2sc(=O)n(Cc3ccccc3)c2=O)cc1
[II] O=c1sn(-c2ccc(Oc3ccccc3)cc2)c(=O)n1Cc1ccccc1
Challenge: Select the item whose % unbinding compound, albumin value is smaller, choosing between I and II . Write down the label attached to your selection.
Response given: I
(I: 67.2%, II: 98.9%)

----------
Test: Brain permeation and pharmacokinetics after oral and intravenous administration
Type: in vivo, C57/BL6 mice
Conditions: both sexes, C57/BL6, mouse, plasma; mice, oral 20 mg/kg vs intravenous 2 mg/kg
ATTRIBUTE MEASURED: bioavailability (%)
State the answer as a number, implicitly in %.

Challenge: Give the value of bioavailability reported for the following: O=c1sn(-c2cccc3ccccc23)c(=O)n1Cc1ccccc1 [Compound 2]
Response given: 31.9

----------
ATTRIBUTE MEASURED: melting point (°C)

Example entries begin here.
>>> recorded_result("Cc1cccc(C(C)(C)C)c1-n1sc(=O)n(Cc2ccccc2)c1=O")
89.8
>>> recorded_result("O=c1sn(C(c2ccccc2)c2ccccc2)c(=O)n1Cc1ccccc1")
111.5
>>> recorded_result("O=c1sn(C23CC4CC(CC(C4)C2)C3)c(=O)n1Cc1ccccc1")
128.8

[a] O=c1sn(-c2ccccc2Cc2ccccc2)c(=O)n1Cc1ccccc1
[b] O=c1sn(-c2ccc(Oc3ccccc3)cc2)c(=O)n1Cc1ccccc1
Challenge: Which of the two items, a and b , has the greater recorded melting point? Write down the label attached to your selection.
Response given: a
(a: 154.9 °C, b: 88.8 °C)

----------
Test: Brain permeation and pharmacokinetics after oral and intravenous administration
Type: in vivo, C57/BL6 mice
Settings: both sexes, C57/BL6, mouse; mice, single oral dose 20 mg/kg, plasma
ATTRIBUTE MEASURED: Cmax (ng/mL)
State the answer as a number, implicitly in ng/mL.

Challenge: Give the value of Cmax reported for the following: O=c1sn(-c2cccc3ccccc23)c(=O)n1Cc1ccccc1 [Compound 2]
Response given: 905

----------
Molecular target: Recombinant human glycogen synthase kinase 3β (Homo sapiens)
Experiment: GSK-3β inhibition
Conditions: recombinant human GSK-3β, GS-2 62.5 μM, ATP 12.5 μM, 30 min at 30° C.
Protocol: The GSK-3β activity was determined by incubation of a mixture of recombinant human GSK-3 enzyme, a phosphate source and GSK-3 substrate in the presence and in the absence of the corresponding test compound, and by measuring the GSK-3 activity of this mixture. The final assay volume was 20 μl. […] Filters were washed four times for at least 10 minutes each and counted with 1.5 ml of scintillation cocktail in a scintillation counter.
pIC50: −log10 of the molar value.
ATTRIBUTE MEASURED: pIC50

>>> recorded_result("O=c1sn(CCc2ccccc2)c(=O)n1Cc1ccccc1 [Compound 1]")
5.52

[I] Cc1ccc(Cn2sc(=O)n(Cc3ccccc3)c2=O)cc1 [Compound 4]
[II] O=c1sn(-c2ccccc2Cc2ccccc2)c(=O)n1Cc1ccccc1 [Compound 9]
Challenge: Select the item whose pIC50 value is smaller, choosing between I and II . Write down the label attached to your selection.
Response given: II
